# Tested on: Wolbachia pipientis
# experimental-details: Anti-Wolbachia Cell-Based Screen
# Assay type: functional
# Design: scale not given: in the data most compounds retested in dose-response had high values
# test-context: 5 µM
Out of some 48,000 compounds screened, about 13,000 (27%) showed an effect of 50% or more. The list shows a part of the results.
measured-metric: Percent Effect (%)

                                    compound  unit_of_measure  value_measured
 0  Cc1cncc(C(=O)N[C@@H]2CC[C@@H](N3CCOCC3)[C@@H]2O)c1                %             120
 1  O=C(Cc1cn2ccccc2n1)N1CCCC(n2cccn2)C1 (stereo not given)                %           62.83
 2     Cc1noc(C)c1CNCc1nn(-c2ccccc2)c2c1CCC2                %          -8.034
 3      CN(Cc1cc(F)cc2cccnc12)CC1CCN(CCO)CC1                %          -1.587
 4       Cc1cnn(Cc2cc(F)ccc2F)c1NC(=O)NC1CC1                %          -2.224
 5  FC(F)(F)c1cc(N2CCc3ncnc(NC4CC4)c3CC2)ncn1                %          -22.18
 6  CCCC(=O)NC1CCCN(C(=O)c2ccc(C)nc2)C1 (stereo not given)                %          -3.666
 7  CC(C)c1nc(CNC(C(=O)N2CCOCC2)C(C)C)no1 (stereo not given)                %          -8.871
 8           Cc1ccc(-n2nnc(C(=O)O)c2C)c(C)c1                %           89.24
 9  Cc1noc(-c2cnc(NCC3CCCO3)nc2-c2ccco2)c1C (stereo not given)                %           115.5
10  COc1ccc(C)cc1CN1CCC(c2cc3ncccc3cn2)CC1.Cl                %             107
11  CCN(CC)CC1CN(Cc2ccco2)Cc2nccn2C1 (stereo not given)                %           84.77
12  c1coc(CN2Cc3nccn3CC(Cn3cncn3)C2)c1 (stereo not given)                %            1.02
13  O=C(Cc1ccc(-n2cccn2)cc1)N1CCCC(n2cccn2)C1 (stereo not given)                %            7.23
14             COc1ccc(Oc2cccnc2)cc1CN1CCCC1                %           40.81
15         CN(C)c1ncnc2c1CCN(c1cccc(F)c1)CC2                %          -12.67
16         COc1ccc(C)cc1CN1CCN(Cc2nccn2C)CC1                %          -6.315
17  Cl.Cl.OC(CN1CCN(Cc2cc(F)ccc2F)CC1)C1CC1 (stereo not given)                %         -0.1352
18    CCCc1nc(N2Cc3cnn(Cc4ccc(F)cc4)c3C2)no1                %           5.743
19  CC(=O)N1CCN([C@@H]2CC[C@@H](NC(=O)c3cc(C)cs3)[C@H]2O)CC1                %           116.4
20  O=C(CCCc1ccccc1)N1CCCC(n2cncn2)C1 (stereo not given)                %             103
21  Cc1nn(C)c2nc(-c3ccccn3)nc(NC[C@@H]3CCCO3)c12                %           -8.15
22      Cc1noc(-c2cnc(NC(C)C)nc2-c2ccco2)c1C                %           118.1
23    O=C(CCc1ccccc1)N1CCn2cc(Cn3cncn3)nc2C1                %          -11.69
24  Cc1ccc(CCC(=O)N2CCCC(n3cncn3)C2)c(C)c1 (stereo not given)                %          -8.257
25            O=C(CCc1ccccc1)N1CC(n2cncn2)C1                %           125.3
26      Cc1noc(-c2cnc(NC3CC3)nc2-c2ccco2)c1C                %           112.5
27  Cl.Fc1ccc(F)c(CN2CCC(c3cc4ncccc4cn3)CC2)c1                %           84.15
28  O=C(CCc1ccccn1)N1CCCC(n2cncn2)C1 (stereo not given)                %             108
29  Cc1ccc(C(=O)N2CCN3C[C@H](Oc4cncnc4)C[C@H]3C2)cn1                %          -3.915

Sourced from ChEMBL document CHEMBL3988442
